targetEntity: MAP kinase-activated protein kinase 2 (Homo sapiens, UniProt P49137); further: in the data inactive means no Kd found up to 30 µM
Sequence (P49137 whole entry): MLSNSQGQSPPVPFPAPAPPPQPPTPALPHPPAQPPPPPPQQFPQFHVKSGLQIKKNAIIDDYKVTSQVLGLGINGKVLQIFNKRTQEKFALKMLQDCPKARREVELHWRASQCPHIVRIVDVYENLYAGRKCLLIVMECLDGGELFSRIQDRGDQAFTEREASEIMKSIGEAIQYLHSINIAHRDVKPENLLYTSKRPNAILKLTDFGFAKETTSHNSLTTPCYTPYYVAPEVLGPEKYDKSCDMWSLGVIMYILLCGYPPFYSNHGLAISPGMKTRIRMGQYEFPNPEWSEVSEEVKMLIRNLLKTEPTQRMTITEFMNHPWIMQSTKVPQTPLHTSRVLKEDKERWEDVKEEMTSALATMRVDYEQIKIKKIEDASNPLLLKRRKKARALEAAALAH
Activity calls are given as the source filed them.
Please answer using one outcome listed in active, inactive

Below, 5 molecules whose answers are already recorded.
QUERY: What outcome does the record of this test show for CNS(=O)(=O)Nc1nccc(Cc2c(C)c3ccc(Oc4ncccn4)cc3oc2=O)c1F [AVUTOMETINIB] ?
RESULT: inactive

QUERY: What outcome does the record of this test show for Cn1cc(-c2ccc3nnc(C(F)(F)c4ccc5ncccc5c4)n3n2)cn1 [JNJ-38877605] ?
RESULT: inactive

QUERY: What outcome does the record of this test show for COc1cc(CCc2cc(NC(=O)c3ccc(N4C[C@@H](C)N[C@@H](C)C4)cc3)n[nH]2)cc(OC)c1 [AZD-4547] ?
RESULT: inactive

QUERY: What outcome does the record of this test show for CCc1cnn2c(NCc3ccc[n+]([O-])c3)cc(N3CCCC[C@H]3CCO)nc12 [DINACICLIB] ?
RESULT: inactive

QUERY: What outcome does the record of this test show for CC(C)Nc1cc(-c2c[nH]c(C(=O)N[C@H](CO)c3cccc(Cl)c3)c2)c(Cl)cn1 [ULIXERTINIB] ?
RESULT: inactive

Next:
QUERY: What outcome does the record of this test show for CCCS(=O)(=O)Nc1ccc(F)c(C(=O)c2c[nH]c3ncc(-c4ccc(Cl)cc4)cc23)c1F [VEMURAFENIB] ?
RESULT: inactive

QUERY: What outcome does the record of this test show for COC(=O)N[C@@H](C)CNc1nccc(-c2cn(C(C)C)nc2-c2cc(Cl)cc(NS(C)(=O)=O)c2F)n1 [ENCORAFENIB] ?
RESULT: active

QUERY: What outcome does the record of this test show for Cc1cc(-c2cc(O)ccc2Cl)cc2nnc(Nc3ccc(OCCN4CCCC4)cc3)nc12 ?
RESULT: inactive
